Reference for the values: patent US8183387B2

assay: Metabolic stability test in human liver; format: in vitro ADME; conditions: liver microsomes, pH 7.4; human liver microsome 1 mg protein/mL, test compound 1 μM, 37° C.
PARAMETER: half-life at 1 μM

Data request, read-out half-life at 1 μM, for C[C@@H]1CCCN1CCCOc1ccc(-n2cc(C(=O)N3CCOCC3)cn2)cc1 [Example 6]
≥ 3 h

====

target: UniProtKB Q9Y5N1; assay: H3 receptor binding test (R(−)-α-methyl[3H]histamine); set-up: purchased Euroscreen ES-392-M; host or cells: CHO-K1; details: inhibition of R(−)-α-methyl[3H]histamine (2 nM) binding, membrane of human H3 receptor-expressing CHO-K1 cells
Sequence (Q9Y5N1 whole entry): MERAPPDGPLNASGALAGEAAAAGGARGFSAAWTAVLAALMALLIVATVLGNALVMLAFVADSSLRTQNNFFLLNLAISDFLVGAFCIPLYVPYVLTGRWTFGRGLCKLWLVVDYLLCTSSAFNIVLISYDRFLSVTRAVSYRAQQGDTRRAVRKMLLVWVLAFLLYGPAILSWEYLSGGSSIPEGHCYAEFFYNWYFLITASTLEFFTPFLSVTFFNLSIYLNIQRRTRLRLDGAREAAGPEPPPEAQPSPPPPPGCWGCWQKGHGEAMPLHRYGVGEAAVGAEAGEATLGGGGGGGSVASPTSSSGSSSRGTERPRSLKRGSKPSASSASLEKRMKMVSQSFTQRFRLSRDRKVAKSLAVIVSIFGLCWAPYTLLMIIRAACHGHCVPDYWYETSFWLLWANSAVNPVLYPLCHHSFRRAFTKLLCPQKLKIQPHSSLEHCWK
PARAMETER: log10 of IC50 (log10 of the value in nM)
Heads up: the numbers are on a log10 scale; they represent IC50 in nM.

A selection of reference data follows.
| MOLECULE | log10 of IC50 |
| --- | --- |
| C[C@@H]1CCCN1CCCOc1ccc(-n2cc(NC(=O)c3ccncc3)cn2)cc1 | -0.10 |
| CC1CCCN1CCCOc1ccc(-n2cc(N3C(=O)CCC3=O)cn2)cc1 (stereo not drawn) | 0.78 |
| C[C@H]1CCCN1CCCOc1ccc(-n2cc(C(N)=O)cn2)cc1 | 1.52 |
| C[C@@H]1CCCN1CCCOc1ccc(-n2cc(C#N)cn2)cc1 | 0.66 |
| C[C@@H]1CCCN1CCCOc1ccc(-n2cc(C(=O)c3ccccc3)cn2)cc1 | 0.52 |
| CC(=O)N(C)c1cnn(-c2ccc(OCCCN3CCC[C@H]3C)cc2)c1 | -0.05 |
| CC(=O)Nc1cnn(-c2ccc(OCCCN3CCC[C@H]3C)cc2)c1 | 0.32 |
| CC1CCCN1CCCOc1ccc(-n2cc(C(=O)c3ccccn3)cn2)cc1 (stereo not drawn) | 0.54 |

Moving on to the next molecule.
Data request, read-out log10 of IC50, for `CC(C)(C)NC(=O)c1cnn(-c2ccc(OCCCN3CCCC3)cc2)c1`
0.79
